Could you please report measured Blocking % for the items listed next?
TEST SYSTEM: T1, human IL-17A (human, UniProt Q16552 20-155, limits assumed)
T1 construct: Bought from R&D Systems; also called IL-17 antigen (human IL17A)
T1 sequence (looked up): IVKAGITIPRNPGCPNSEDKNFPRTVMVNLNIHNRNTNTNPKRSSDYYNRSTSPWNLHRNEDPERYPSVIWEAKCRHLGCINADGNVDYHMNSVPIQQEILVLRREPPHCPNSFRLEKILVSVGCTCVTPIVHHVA
MEASUREMENT PROTOCOL: blocking ELISA, IL-17RA coated; antibody 1 ug/ml pre-mixed with human IL-17A 0.1 ug/ml; bound IL-17A detected
Reply with just the number (in %).

// PP10760 (antibody, human IgG4 S228P, kappa, V domains shown, Humanized, human IgG4/kappa; also called VH6665/VL6665) VH: EVQLVESGGGLVQPGGSLRLSCAASGFTFSTYGMSWVRQAPGKGLELVSIINHNGGSTFYPDSVKGRFTISRDNSKNTLYLQMNSLRAEDTAVYYCARDPRHDGYFFDYWGQGTLVTVSS VL: DIQMTQSPSSLSASVGDRVTITCQASEDIYDRLAWYQQKPGKAPKLLISGATSLETGVPSRFSGSGSGTDYTFTISSLQPEDIATYYCQQYWSVPWTFGGGTKVEIKR : Blocking % value = 97.8

Given item PP10765 (antibody, human IgG4 S228P, kappa, V domains shown, Humanized, human IgG4/kappa; also called VH6666/VL6667) VH: EVQLVESGGGLVQPGGSLRLSCAASGFTFSTYGMSWVRQAPGKGLELVAIINHNGGSTFYPDSVKGRFTVSRDNSKNTLYLQMNSLRAEDTAVYYCARDPRHDGYFFDYWGQGTLVTVSS VL: DIQMTQSPSSLSASVGDRVTITCRASEDIYDRLAWYQQKPGKAPNLLVSGATSLESGVPSRFSGSGSGKDYTLTISSLQPEDFATYYCQQYWSVPWTFGGGTKVEIKR , the value recorded as its Blocking % is 89.9
